# System: MS2 coat protein
# measurementDescription: apparent Kd, MS2 coat protein; higher = weaker binding; RNA-MaP array; FMN 200 µM where present
# details: designed as: ON switch for flavin mononucleotide; no ligand
Assignment: determine reported apparent Kd for the given sequences.

Use these answered entries as a reference point.
primarySequence: GUGGUCAGACAUGAGGAUCACCCAUGUGGAAUAAAUAAGGAGAAGGAUAUCUAAUAUAGGAUAUAAGAGAAGGUUUGGUUGGUG
apparent Kd: 74 nM

primarySequence: GGCGGGCGAAACAUGAGGAUCACCCAUGUGUUAUACUUAAUAUAGGAUAUGUUUAUACUUUUUGGGCAGAAGGAUGCGCCUGCC
apparent Kd: 37.9 nM

primarySequence: GUAGCAUACCGAGGAUAUCUAUACCGGAAACGGACAUGAGGAUCACCCAUGUGGCGAAAGCCUUGGGAGAAGGCGGAAUGCUAC
apparent Kd: 20.8 nM

primarySequence: UUGAGGUGCAAGAAGGAUCACAUGAGGAUCACCCAUGUCAUGUGAAGUCUCGAGAUUUUAUAUGGAUAGGAUAUUGCACCGAAC
apparent Kd: 263 nM

Record apparent Kd for all entries; do not skip any.
1. GUAUGAGCGAUAGGAUAUACUGAGAUUGAAUGGGUAGAAGGAUCUCUUGUGGGAAAGACAUGAGGAUCACCCAUGUCACGGACC
2. UGGUCAACAUCAGGAUAUUAACAUGGGCUACACUAAGAAGGGAUAAUGAAAUACGAACUAAACGCACAUGAGGAUCACCCAUGU

-- reply
1. 186 nM
2. 34.4 nM
